Where do the numbers come from? From paper PMC11778240.

Catalogue of molecules with associated logKi (best-fit value), PKC-β-I
biological target: PKC-β-I (Homo sapiens); construct: purchased Invitrogen; assay: Cell-free PKC competition binding assay against 3H-PDBu; conditions: log of Ki in nM; HotNM 2.5; HotKdNM 0.37
Sequence (P05771 whole entry): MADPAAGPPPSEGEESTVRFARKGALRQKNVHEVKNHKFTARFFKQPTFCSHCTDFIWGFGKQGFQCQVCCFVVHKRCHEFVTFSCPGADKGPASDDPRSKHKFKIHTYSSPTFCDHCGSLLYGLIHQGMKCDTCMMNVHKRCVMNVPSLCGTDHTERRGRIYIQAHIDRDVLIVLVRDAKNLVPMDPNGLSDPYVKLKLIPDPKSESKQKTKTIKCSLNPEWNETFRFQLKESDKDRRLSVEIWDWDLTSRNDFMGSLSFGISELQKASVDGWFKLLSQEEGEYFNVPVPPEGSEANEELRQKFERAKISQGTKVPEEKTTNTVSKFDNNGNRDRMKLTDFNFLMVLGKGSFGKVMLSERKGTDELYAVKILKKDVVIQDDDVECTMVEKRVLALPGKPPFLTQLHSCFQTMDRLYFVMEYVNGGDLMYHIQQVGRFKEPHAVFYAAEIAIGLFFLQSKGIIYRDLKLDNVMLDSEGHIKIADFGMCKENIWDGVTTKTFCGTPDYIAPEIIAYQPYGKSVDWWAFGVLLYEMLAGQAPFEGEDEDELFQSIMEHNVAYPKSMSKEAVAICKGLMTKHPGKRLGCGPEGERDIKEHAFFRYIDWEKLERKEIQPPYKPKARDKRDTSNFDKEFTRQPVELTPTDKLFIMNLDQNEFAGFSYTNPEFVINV

MOLECULE: CC[C@H](C)C(=O)O[C@@]12[C@H](OC(=O)C3(C)CC3)[C@@H](C)[C@@]3(O)[C@H]([C@@H]1C2(C)C)[C@@H]1O[C@]1(CO)[C@@H](O)[C@]1(O)C(=O)C(C)=C[C@H]13
logKi (best-fit value), PKC-β-I: 0.3892

MOLECULE: C/C=C(\C)C(=O)O[C@@H]1[C@@H](C)[C@@]2(O)[C@H]([C@@H]3C(C)(C)[C@]13OC(=O)Cc1cccc3ccccc13)[C@@H]1O[C@]1(CO)[C@@H](O)[C@]1(O)C(=O)C(C)=C[C@H]12
logKi (best-fit value), PKC-β-I: -1.102

MOLECULE: CC=C(C)C(=O)OC1C(C)C2(O)C(C3OC3(CO)CC3(O)C(=O)C(C)=CC32)C2C(C)(C)C12OC(=O)C(C)CC (stereo not shown)
logKi (best-fit value), PKC-β-I: 0.8975

MOLECULE: C/C=C(\C)C(=O)O[C@@H]1[C@@H](C)[C@]2(O)[C@@H]3C=C(C)C(=O)[C@@]3(O)[C@H](O)C(CO)=C[C@H]2[C@@H]2C(C)(C)[C@]12OC(=O)[C@@H](C)CC
logKi (best-fit value), PKC-β-I: -0.07019

MOLECULE: CC[C@H](C)C(=O)O[C@@]12[C@H](OC(=O)N3CCCC3)[C@@H](C)[C@@]3(O)[C@H]([C@@H]1C2(C)C)[C@@H]1O[C@]1(CO)[C@@H](O)[C@]1(O)C(=O)C(C)=C[C@H]13
logKi (best-fit value), PKC-β-I: 1.445

MOLECULE: C/C=C(\C)C(=O)O[C@@H]1[C@@H](C)[C@]2(O)[C@@H]3C=C(C)[C@H](OC(=O)C=C(C)C)[C@@]3(O)[C@H](O)C(CO)=C[C@H]2[C@@H]2C(C)(C)[C@]12OC(=O)[C@@H](C)CC
logKi (best-fit value), PKC-β-I: 0.4165

MOLECULE: C/C=C(\C)C(=O)O[C@@H]1[C@@H](C)[C@@]2(O)[C@H]([C@@H]3C(C)(C)[C@]13OC(=O)c1ccccc1)[C@@H]1O[C@]1(CO)[C@@H](O)[C@]1(O)C(=O)C(C)=C[C@H]12
logKi (best-fit value), PKC-β-I: 0.7091

MOLECULE: C/C=C(\C)C(=O)O[C@@H]1[C@@H](C)[C@@]2(O)[C@H]([C@@H]3C(C)(C)[C@]13OC(=O)[C@H](C)CC)[C@@H]1O[C@]1(CO)[C@@H](O)[C@]1(O)C(=O)C(C)=C[C@H]12
logKi (best-fit value), PKC-β-I: 0.3637

MOLECULE: CC=C(C)C(=O)OC1C(C)C2(O)C(C3OC3(COC)C(O)C3(O)C(=O)C(C)=CC32)C2C(C)(C)C12OC(=O)C(C)CC (stereo not shown)
logKi (best-fit value), PKC-β-I: 2.598

MOLECULE: C/C=C(\C)C(=O)O[C@@H]1[C@@H](C)[C@@]2(O)[C@@H](C=C(CO)C[C@]3(O)C(=O)C(C)=C[C@@H]23)[C@@H]2C(C)(C)[C@]12OC(=O)[C@@H](C)CC
logKi (best-fit value), PKC-β-I: -0.9263
